Target: Activin receptor type-1 (Homo sapiens); also: in the data inactive means no Kd found up to 30 µM
Sequence (Q04771 whole entry): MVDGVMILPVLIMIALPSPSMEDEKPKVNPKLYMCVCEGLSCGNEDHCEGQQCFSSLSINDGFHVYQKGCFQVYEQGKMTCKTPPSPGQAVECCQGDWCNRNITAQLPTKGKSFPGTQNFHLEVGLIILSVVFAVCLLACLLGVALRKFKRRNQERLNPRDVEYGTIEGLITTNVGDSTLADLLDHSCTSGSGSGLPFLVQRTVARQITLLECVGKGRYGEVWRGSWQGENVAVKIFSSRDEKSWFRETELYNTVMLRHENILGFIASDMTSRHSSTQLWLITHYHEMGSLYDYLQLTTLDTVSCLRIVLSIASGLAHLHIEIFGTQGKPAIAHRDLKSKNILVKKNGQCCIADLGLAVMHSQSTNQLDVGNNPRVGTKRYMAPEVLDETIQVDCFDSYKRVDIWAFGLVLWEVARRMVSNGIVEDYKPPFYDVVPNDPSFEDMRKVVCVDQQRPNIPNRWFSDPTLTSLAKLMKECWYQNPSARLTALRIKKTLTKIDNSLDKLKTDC
Activity calls are given as the source filed them.
Please answer using one outcome listed in Y (active), N (inactive)

Below, 5 molecules whose answers are already recorded.
- MOLECULE: "C=CC(=O)Nc1cccc(Nc2nc(Nc3ccc(N4CCN(C(C)=O)CC4)cc3OC)ncc2C(F)(F)F)c1"
  CLASSIFICATION: "N"
- MOLECULE: "C=CC(=O)Nc1cc(Nc2nccc(-c3cn(C)c4ccccc34)n2)c(OC)cc1N(C)CCN(C)C"
  CLASSIFICATION: "N"
- MOLECULE: "C=CCN(/C=C1/C(=O)O[C@H](COC)[C@@]2(C)C1=C(O)C(=O)C1=C2[C@H](OC(C)=O)C[C@]2(C)C(=O)CC[C@@H]12)CC=C"
  CLASSIFICATION: "N"
- MOLECULE: "CC(C)(O)CC(=O)NCCn1ccc2ncnc(Nc3ccc(Oc4cccc(C(F)(F)F)c4)c(Cl)c3)c21"
  CLASSIFICATION: "N"
- MOLECULE: "COc1ccc(-c2ccc3ncc4c(c3c2)n(-c2ccc(N3CCNCC3)c(C(F)(F)F)c2)c(=O)n4C)cn1 [BGT-226 FREE BASE]"
  CLASSIFICATION: "N"

In the following, a different molecule is considered.
Request: What call does the record list for COc1cc(F)c(F)c(Nc2ccc(I)cc2F)c1NS(=O)(=O)C1(C[C@H](O)CO)CC1 ?
Response: N
